Value source: patent US7118895B2

Test system: Crude diglycosidase
Test: Examination of temperature in the conversion into isoflavone aglycons by diglycosidase using soybean materials
Type: biochemical, Penicillium multicolor IAM7153
Conditions: 65 °C; heat treatment of enzyme: no; 6 h
assay-metric: Decomposition efficiency of glycitin family in concentrated soybean protein (%)
Output spec: scalar in %, unitless text.

Example cases with answers are listed next.
COc1cc2c(=O)c(-c3ccc(O)cc3)coc2cc1O[C@@H]1O[C@H](COC(=O)CC(=O)O)[C@@H](O)[C@H](O)[C@H]1O [malonylglycitin, 6″-O-malonylglycitin]; 0.4
COc1cc2c(=O)c(-c3ccc(O)cc3)coc2cc1O[C@@H]1O[C@H](COC(C)=O)[C@@H](O)[C@H](O)[C@H]1O [acetylglycitin, 6″-O-acetylglycitin]; 35.8

Provide Crude diglycosidase Decomposition efficiency of glycitin family in concentrated soybean protein reading for COc1cc2c(=O)c(-c3ccc(O)cc3)coc2cc1O [glycitein] .
63.8

###

Items are presented alongside their recorded Decomposition efficiency: ratio of each glycoside/aglycon within its isoflavone family.
Test system: Crude diglycosidase
Test: Examination of substrate concentration in the conversion into isoflavone aglycons by diglycosidase using soybean materials;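 further: percent of the isoflavone family total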
Assay type: biochemical, Penicillium multicolor IAM7153
Settings: concentrated soybean protein, substrate concentration 2%, heat treatment of enzyme yes, reaction time 6 h
State just the number; it will be interpreted in %.

Solved entries:
COc1cc2c(=O)c(-c3ccc(O)cc3)coc2cc1O; 11.2
COc1cc2c(=O)c(-c3ccc(O)cc3)coc2cc1O[C@@H]1O[C@H](COC(=O)CC(=O)O)[C@@H](O)[C@H](O)[C@H]1O; 0.4
CC(=O)OC[C@H]1O[C@@H](Oc2cc(O)c3c(=O)c(-c4ccc(O)cc4)coc3c2)[C@H](O)[C@@H](O)[C@@H]1O; 41.3

For the molecule `O=c1c(-c2ccc(O)cc2)coc2cc(O[C@@H]3O[C@H](CO)[C@@H](O)[C@H](O)[C@H]3O)cc(O)c12` , give its reported Decomposition efficiency: ratio of each glycoside/aglycon within its isoflavone family.
51.6

###

The following compounds are listed with their measured Decomposition efficiency of daidzin family in soymilk values.
Test system: Crude diglycosidase
Experiment: Examination of pH in the conversion into isoflavone aglycons by diglycosidase using soybean materials
Type: biochemical, Penicillium multicolor IAM7153
Details: pH7.2; heat treatment of enzyme: no; reaction time 1 h
Report only the number, with the unit % understood.

O=C(O)CC(=O)OC[C@H]1O[C@@H](Oc2ccc3c(=O)c(-c4ccc(O)cc4)coc3c2)[C@H](O)[C@@H](O)[C@@H]1O [malonyldaidzin, 6″-O-malonyldaidzin]; 56.4

Now look at this entry.
Identify measured Decomposition efficiency of daidzin family in soymilk obtained with Crude diglycosidase for O=c1c(-c2ccc(O)cc2)coc2cc(O)ccc12 [daidzein] .
43.6

###

Reported Decomposition efficiency of genistin family in defatted soybean values are given for each entry in this list.
Test system: Crude diglycosidase
Assay: Examination of pH in the conversion into isoflavone aglycons by diglycosidase using soybean materials
Type: biochemical, Penicillium multicolor IAM7153
Design: concentration or dose not given beside the values
Settings: pH3.4; heat treatment of enzyme: no; reaction time 6 h
Give the number; % is assumed, so skip it.

// fetch Decomposition efficiency of genistin family in defatted soybean given entry O=C(O)CC(=O)OC[C@H]1O[C@@H](Oc2cc(O)c3c(=O)c(-c4ccc(O)cc4)coc3c2)[C@H](O)[C@@H](O)[C@@H]1O [malonylgenistin, 6″-O-malonylgenistin]
30.4

Supply Decomposition efficiency of genistin family in defatted soybean value. Item: CC(=O)OC[C@H]1O[C@@H](Oc2cc(O)c3c(=O)c(-c4ccc(O)cc4)coc3c2)[C@H](O)[C@@H](O)[C@@H]1O [acetylgenistin, 6″-O-acetylgenistin]
0.8

Item O=c1c(-c2ccc(O)cc2)coc2cc(O)cc(O)c12 [genistein] : provide Decomposition efficiency of genistin family in defatted soybean
68.8

###

System: Crude diglycosidase
Experiment: Examination of pH in the conversion into isoflavone aglycons by diglycosidase using soybean materials
Assay type: biochemical, Penicillium multicolor IAM7153
Parameters: concentration or dose not given beside the values
Conditions: pH3.4; heat treatment of enzyme: no; reaction time 0 h
Measured Decomposition efficiency of daidzin family in defatted soybean values are reported for all entries that follow.
All answers are understood in %, so give the number only.

O=C(O)CC(=O)OC[C@H]1O[C@@H](Oc2ccc3c(=O)c(-c4ccc(O)cc4)coc3c2)[C@H](O)[C@@H](O)[C@@H]1O; 41.0
O=c1c(-c2ccc(O)cc2)coc2cc(O)ccc12; 13.2

Report measured Decomposition efficiency of daidzin family in defatted soybean; entry is `O=c1c(-c2ccc(O)cc2)coc2cc(O[C@@H]3O[C@H](CO)[C@@H](O)[C@H](O)[C@H]3O)ccc12`
45.8

###

Entries and their Decomposition efficiency of genistin family in defatted soybean values follow.
Test system: Crude diglycosidase
Test: Examination of pH in the conversion into isoflavone aglycons by diglycosidase using soybean materials
Type: biochemical, Penicillium multicolor IAM7153
Set-up: concentration or dose not given beside the values
Conditions: pH4.8; heat treatment of enzyme: no; reaction time 1 h

O=C(O)CC(=O)OC[C@H]1O[C@@H](Oc2cc(O)c3c(=O)c(-c4ccc(O)cc4)coc3c2)[C@H](O)[C@@H](O)[C@@H]1O; 42.8%
O=c1c(-c2ccc(O)cc2)coc2cc(O)cc(O)c12; 56.1%

For the next question, use this molecule.
Identify Decomposition efficiency of genistin family in defatted soybean associated with the molecule `CC(=O)OC[C@H]1O[C@@H](Oc2cc(O)c3c(=O)c(-c4ccc(O)cc4)coc3c2)[C@H](O)[C@@H](O)[C@@H]1O`
1.0%

###

Tested on: Crude diglycosidase
Test: Examination of pH in the conversion into isoflavone aglycons by diglycosidase using soybean materials
Format: biochemical, Penicillium multicolor IAM7153
Details: pH5.1; heat treatment of enzyme: yes; reaction time 6 h
Form field: Decomposition efficiency of daidzin family in concentrated soybean protein (one value per entry).
// units = %; emit number, no label

Known results for compounds:
CC(=O)OC[C@H]1O[C@@H](Oc2ccc3c(=O)c(-c4ccc(O)cc4)coc3c2)[C@H](O)[C@@H](O)[C@@H]1O [acetyldaidzin, 6″-O-acetyldaidzin]; 43.4
O=c1c(-c2ccc(O)cc2)coc2cc(O[C@@H]3O[C@H](CO)[C@@H](O)[C@H](O)[C@H]3O)ccc12 [daidzin]; 53.4

Shift focus to the following entry.
Specify reported Decomposition efficiency of daidzin family in concentrated soybean protein for the compound shown: O=c1c(-c2ccc(O)cc2)coc2cc(O)ccc12 [daidzein]
3.2

###

Test system: Crude diglycosidase
Test: Examination of temperature in the conversion into isoflavone aglycons by diglycosidase using soybean materials
Type: biochemical, Penicillium multicolor IAM7153
Parameters: concentration or dose not given beside the values
Conditions: 65 °C; heat treatment of enzyme: no; 3 h
Entries and their Decomposition efficiency of glycitin family in roasted soy flour values follow.
The reply should be a number in %, with the unit left off.

COc1cc2c(=O)c(-c3ccc(O)cc3)coc2cc1O[C@@H]1O[C@H](COC(C)=O)[C@@H](O)[C@H](O)[C@H]1O; 31.0

For the compound `COc1cc2c(=O)c(-c3ccc(O)cc3)coc2cc1O` , give its reported Decomposition efficiency of glycitin family in roasted soy flour.
69.0

###

Tested on: Crude diglycosidase
Assay: Examination of substrate concentration in the conversion into isoflavone aglycons by diglycosidase using soybean materials;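 further: percent of the isoflavone family total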
Format: biochemical, Penicillium multicolor IAM7153
Settings: soymilk, substrate concentration 20%, heat treatment of enzyme no, reaction time 1 h
assay-metric: Decomposition efficiency: ratio of each glycoside/aglycon within its isoflavone family

O=c1c(-c2ccc(O)cc2)coc2cc(O[C@@H]3O[C@H](CO)[C@@H](O)[C@H](O)[C@H]3O)ccc12 [daidzin]; not detected
COc1cc2c(=O)c(-c3ccc(O)cc3)coc2cc1O [glycitein]; 72.2%
O=c1c(-c2ccc(O)cc2)coc2cc(O[C@@H]3O[C@H](CO)[C@@H](O)[C@H](O)[C@H]3O)cc(O)c12 [genistin]; not detected
COc1cc2c(=O)c(-c3ccc(O)cc3)coc2cc1O[C@@H]1O[C@H](COC(C)=O)[C@@H](O)[C@H](O)[C@H]1O [acetyl-glycitin]; not detected
COc1cc2c(=O)c(-c3ccc(O)cc3)coc2cc1O[C@@H]1O[C@H](CO)[C@@H](O)[C@H](O)[C@H]1O [glycitin]; not detected
COc1cc2c(=O)c(-c3ccc(O)cc3)coc2cc1O[C@@H]1O[C@H](COC(=O)CC(=O)O)[C@@H](O)[C@H](O)[C@H]1O [malonylglycitin, 6″-O-malonylglycitin]; 27.8%

Moving on to another compound below.
Item CC(=O)OC[C@H]1O[C@@H](Oc2ccc3c(=O)c(-c4ccc(O)cc4)coc3c2)[C@H](O)[C@@H](O)[C@@H]1O [acetyl-daidzin] : provide Decomposition efficiency: ratio of each glycoside/aglycon within its isoflavone family
not detected

###

Documented Decomposition efficiency of glycitin family in concentrated soybean protein across a set of compounds
Test system: Crude diglycosidase
Assay: Examination of pH in the conversion into isoflavone aglycons by diglycosidase using soybean materials
Type: biochemical, Penicillium multicolor IAM7153
Conditions: pH1.6; heat treatment of enzyme: no; reaction time 0 h
# output: bare number, implied unit %

Output Decomposition efficiency of glycitin family in concentrated soybean protein of `COc1cc2c(=O)c(-c3ccc(O)cc3)coc2cc1O[C@@H]1O[C@H](CO)[C@@H](O)[C@H](O)[C@H]1O`
52.3

Give the value of Decomposition efficiency of glycitin family in concentrated soybean protein reported for the following: `COc1cc2c(=O)c(-c3ccc(O)cc3)coc2cc1O[C@@H]1O[C@H](COC(C)=O)[C@@H](O)[C@H](O)[C@H]1O`
35.9

Item `COc1cc2c(=O)c(-c3ccc(O)cc3)coc2cc1O[C@@H]1O[C@H](COC(=O)CC(=O)O)[C@@H](O)[C@H](O)[C@H]1O` : provide Decomposition efficiency of glycitin family in concentrated soybean protein
0.4

Recall and state the measured Decomposition efficiency of glycitin family in concentrated soybean protein for `COc1cc2c(=O)c(-c3ccc(O)cc3)coc2cc1O` .
11.3
